assay-details: amyloid nucleation score (Sup35N fusion, yeast selection) (log enrichment); library NNK2; higher = more nucleation; inactive = no reads after selection;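 also: zero at mode of non-aggregating sequences after 7 days selection at 30°C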
Classification field: enter yes (1) for amyloid nucleation score values not below 0.3, no (0) for values below it.

substance: CRLCSGLREMQPIRLM
group-label: yes (1)
//
substance: HCCHRFYMDSEIACTCFTTM
group-label: no (0)
//
substance: CSCSVIGWFLHPVATVINLT
group-label: yes (1)
//
substance: FAWGPFA
group-label: no (0)
//
substance: LNVLKNT
group-label: no (0)
//
substance: GTRLNYFNWIICGGETGCAA
group-label: no (0)
//
substance: VGEYLCEPATLY
group-label: no (0)
//
substance: NNWYNTYYKSIKASQPRSSR
group-label: no (0)
//
substance: FLNESGSFWCSGFLIWVMRM
group-label: no (0)
//
substance: LDALVSWSLECGWYESCWSR
group-label: no (0)
//
substance: NDNKRYIHYPFLMGFTVSYL
group-label: no (0)
//
substance: SLVTISFLGLFGSSSALVVA
group-label: no (0)
//
substance: LVSMNFYCMILGIESLFVLS
group-label: yes (1)
//
substance: KKSSVPTSYLYVNENFLTVL
group-label: yes (1)
//
substance: WWRNFD
group-label: no (0)
//
substance: GECLDR
group-label: yes (1)
//
substance: SYFEMAYEWYCMNWMGEVIK
group-label: yes (1)

* * *

assay-details: amyloid nucleation score (Sup35N fusion, yeast selection) (log enrichment); library NNK1; higher = more nucleation; inactive = no reads after selection
The threshold is inclusive: amyloid nucleation score of exactly -0.4 counts as rule met; values below receive rule not met.

substance: MVGYGECIDMWPMLVKVDVV
group-label: rule met
--
substance: KASGIMLSSGVLEILVWVQW
group-label: rule met
--
substance: LAFTNRVVVWESWSAMAVRW
group-label: rule met
--
substance: RIILGETGAALWWRI
group-label: rule met
--
substance: GGLWYTSTYSIYG
group-label: rule met
--
substance: WTNSRHC
group-label: rule met
--
substance: CLCVGDDGGADWNKVRVITS
group-label: rule met
--
substance: IFGFVWDPKTNYMTGLFASI
group-label: rule met
--
substance: WSLWARWSFRHRCQRMHLLL
group-label: rule met
--
substance: ISLTDRVSGNRAVYHCSYAS
group-label: rule not met
--
substance: AWDYNKN
group-label: rule met
--
substance: WHMVKSVSTNIV
group-label: rule met
--
substance: LAKGGPL
group-label: rule not met
--
substance: NRFTHHSIR
group-label: rule met
--
substance: SCTGCLFDTELRWISWVGLF
group-label: rule met
--
substance: HYWDYAISRIR
group-label: rule not met
--
substance: HWIMAMFMSPPANTHDEAEI
group-label: rule met
--
substance: YLREVYFFMGVWDRK
group-label: rule met
--
substance: SYLGSAAIYVCLAGRPSGQR
group-label: rule not met

* * *

assay-details: amyloid nucleation score (Sup35N fusion, yeast selection) (log enrichment); library NNK1; higher = more nucleation; inactive = no reads after selection
Everything with amyloid nucleation score lower than -0.02 is label 0; everything else, including exactly -0.02, is label 1.

substance: KCLTMDFLR
group-label: label 0
//
substance: SNSRGYSWRDTGTNLRGYPE
group-label: label 0
//
substance: FIGGLHMALYDYPVEGSALA
group-label: label 1
//
substance: VKKGILLSVLDASFRTSVYE
group-label: label 0
//
substance: IGSMNCRLLVTWKMVWLVPH
group-label: label 0
//
substance: DMSIKFCEPDFLLRNEQHNL
group-label: label 1
//
substance: GSNVSSTM
group-label: label 1
//
substance: AVFGRLMVVDVYVSRSALTS
group-label: label 1
//
substance: RFMKPTMVWL
group-label: label 1
//
substance: HSNCVDSRCETARTS
group-label: label 1
//
substance: GMRVRNRFVVSDSSYPPASH
group-label: label 0
//
substance: CSYPHIDIAPRSACPTWTQD
group-label: label 1
//
substance: EVHRFRVKKEGGDQ
group-label: label 1
//
substance: HVFVLLPSKFADLLKKPVLL
group-label: label 0
//
substance: VENNWIWVGRTLNATLDSHQ
group-label: label 1
//
substance: SQKEFRKTAIKTHLMFRIHL
group-label: label 0
//
substance: LRVNIPVTQSSTVIHY
group-label: label 1
//
substance: CIDYLRSDC
group-label: label 1
//
substance: FRLEGRCSLLFCTCRLDV
group-label: label 1
//
substance: SFSNVRNI
group-label: label 0
//
substance: FDKYLRWFMKTLCNIDNWRW
group-label: label 0
//
substance: CLPCVCIVNFTLGYDKGVV
group-label: label 1
//
substance: RVMLKSDRFYYVLKTCAY
group-label: label 1
//
substance: EMAFSSINPRGHSIQGSASG
group-label: label 0
//
substance: ERVSETRQSLTWNHNERIWL
group-label: label 1
//
substance: LVCFGFSNNCCELCCYYSNL
group-label: label 1
//
substance: FDITRGRSTSYLIERRRTWG
group-label: label 1
//
substance: NVMVTFFGCIRKWRSNWSQE
group-label: label 1
//
substance: MDCTFINGFRVFNLSNSR
group-label: label 1
//
substance: QHCARTAGVSVARVVVSNCG
group-label: label 1
//
substance: MTTRIFSLKIA
group-label: label 1
//
substance: AYWGHITGKVKFMEAAPLDV
group-label: label 1
//
substance: FPSARYNNLT
group-label: label 1
//
substance: WIILVHGGGKRLSVNIHLLC
group-label: label 0
//
substance: SGHTVVMVMNMCCVSFHLRC
group-label: label 1
//
substance: LFDNFIAHMGCSRIPYDSHS
group-label: label 0
//
substance: LFIDVSR
group-label: label 0
//
substance: MVLTFAV
group-label: label 0
//
substance: NHRNVMRQIDASVMGVYNTW
group-label: label 1
//
substance: NPVPGARKNRVHAGSKSDTG
group-label: label 1
//
substance: SRWKLGGGDL
group-label: label 1
//
substance: APMYDDLDATMVELEGP
group-label: label 1
//
substance: GEVFFLVRSSVVCWISLICA
group-label: label 0
//
substance: MFVNPALLLFL
group-label: label 1

* * *

assay-details: amyloid nucleation score (Sup35N fusion, yeast selection) (log enrichment); library NNK1; higher = more nucleation; inactive = no reads after selection

chain-sequence: YVSAGWVYRSYFGIIFILRN
amyloid nucleation score: -0.873
//
chain-sequence: IRDMFVSGSQFFLKHMLSRG
amyloid nucleation score: 0.436
//
chain-sequence: LSSLGDLLLMNQPNAQRLTY
amyloid nucleation score: -0.746
//
chain-sequence: FVRGDKLRTTGELSSAINRS
amyloid nucleation score: -0.608
//
chain-sequence: IMRRVLAFSCN
amyloid nucleation score: -0.538
//
chain-sequence: ENFLTNYFYSVVTVI
amyloid nucleation score: -1.51
//
chain-sequence: TSLRFLSVRS
amyloid nucleation score: 0.011
//
chain-sequence: LAKFESSEVACSLFFAISLA
amyloid nucleation score: -0.997
//
chain-sequence: SKLCVCGTASLLHYTVTERV
amyloid nucleation score: 5.29
//
chain-sequence: FMDTAMTSFGSLSW
amyloid nucleation score: -0.317
//
chain-sequence: SRTTAVSYLGNGFVI
amyloid nucleation score: -0.573
//
chain-sequence: SGGPGDAGRLRQ
amyloid nucleation score: -0.005
//
chain-sequence: CCVGRALCHNVVS
amyloid nucleation score: 0.594
//
chain-sequence: REVSMRDGGPVT
amyloid nucleation score: 0.298
//
chain-sequence: SLKGFADSVSGSVGLKDKAV
amyloid nucleation score: 0.502
//
chain-sequence: LGRGSGYRVLVMYLSVHC
amyloid nucleation score: 0.164
//
chain-sequence: DNKFYHKVTDRRFLIPIFQI
amyloid nucleation score: -0.331
//
chain-sequence: LVNRVKRCAMNVHLSIGGDR
amyloid nucleation score: -0.479
//
chain-sequence: AKRLWIQLRGVHSRMLTGYY
amyloid nucleation score: -0.244
//
chain-sequence: GVPVYAVFLVDAMMYVCCMF
amyloid nucleation score: 3.51
//
chain-sequence: TDYRFTRVWRRGVARS
amyloid nucleation score: 0.707
//
chain-sequence: TSFMEIVVLDAVGRQRRSSV
amyloid nucleation score: -0.106
//
chain-sequence: ITVDAMIKSVYFITDSYRHF
amyloid nucleation score: 0.911
//
chain-sequence: HPFKLGVFNISGESLSTA
amyloid nucleation score: -0.802
//
chain-sequence: GYGFFWCDCYRYDRGSRWTG
amyloid nucleation score: 1.93
//
chain-sequence: FTWIVFANSSAYFRTLQWSC
amyloid nucleation score: 0.032
//
chain-sequence: LFLHVSMVS
amyloid nucleation score: -1.31
//
chain-sequence: ENYKVGACVYLPWPFHENTG
amyloid nucleation score: -0.096
